All values here come from ChEMBL document CHEMBL1125355.

Tested on: RPMI-8226
ASSAY PROCEDURE: In vitro inhibition of tumor cell growth in the human myeloma 8226 system.
Type: functional, cell-based
pIC50: −log10 of the molar value.
Parameter threshold = 7. Response is met when pIC50 meets or exceeds it, else not met.

Below, 4 molecules whose answers are already recorded.
# MOLECULE, SYSTEM NAME, CLASS LABEL
records = [
    ("CCN(CC)CC(O)CNc1ccc(NCC2CO2)c2c1C(=O)c1ccccc1C2=O.O=C(O)/C=C/C(=O)O (stereo unspecified)", "RPMI-8226", "met"),
    ("CCN(CC)CC(O)CNc1ccc(NCC(O)CCl)c2c1C(=O)c1ccccc1C2=O (stereo unspecified)", "RPMI-8226", "not met"),
    ("O=C1c2c(O)ccc(O)c2C(=O)c2c(NCCNCCO)ccc(NCCNCCO)c21", "RPMI-8226", "met"),
    ("CCCNCC(O)CNc1ccc(NCC(O)CCl)c2c1C(=O)c1ccccc1C2=O (stereo unspecified)", "RPMI-8226", "not met"),
]

Evaluate O=C1c2ccccc2C(=O)c2c(NCC(O)CNCc3ccccc3)ccc(NCC(O)CCl)c21 (stereo unspecified) : pIC50 at minimum 7?
not met

Please tell me: is the molecule `COc1cccc2c1C(=O)c1c(O)c3c(c(O)c1C2=O)C[C@@](O)(C(=O)CO)C[C@@H]3O[C@H]1C[C@H](N)[C@H](O)[C@H](C)O1` at or over 7 in terms of pIC50?
met

* * *

Test system: MCF7
ASSAY PROCEDURE: In vitro inhibition of tumor cell growth in the human mammary carcinoma MCF-7/ADR system.
Format: functional, cell-based
Please use YES for IC50 under 4 µM and NO for everything else, ties included.

Recorded results for 3 compounds are shown here.
# COMPOUND, SYSTEM NAME, CLASS LABEL
records = [
    ("CCN(CC)CC(O)CNc1ccc(NCC2CO2)c2c1C(=O)c1ccccc1C2=O.O=C(O)/C=C/C(=O)O (stereo not given)", "MCF7", "YES"),
    ("O=C1c2ccccc2C(=O)c2c(NCC(O)CNCc3ccccc3)ccc(NCC(O)CCl)c21 (stereo not given)", "MCF7", "NO"),
    ("CCN(CC)CC(O)CNc1ccc(NCC(O)CCl)c2c1C(=O)c1ccccc1C2=O (stereo not given)", "MCF7", "YES"),
]

Consider the compound CCCNCC(O)CNc1ccc(NCC(O)CCl)c2c1C(=O)c1ccccc1C2=O (stereo not given) . Is its IC50 strictly less than 4 µM?
NO
